# tested on: Somatostatin receptor type 2 (Sus scrofa)
# method description: Inhibitory concentration towards binding of sst2 receptor using [125I]somatostatin as radioligand in Neuro2A cells
Listed here: items and their measured IC50.
Please state the figure in nM; there is no need to write the unit.

Some solved entries appear below for comparison.
| smi | reported measurement |
| --- | --- |
| Cc1ccc(C(=O)N2CCN(C(=O)N[C@H](Cc3c[nH]c4ccccc34)C(=O)N[C@@H](CCCCN)C(=O)OC(C)(C)C)CC2)cc1 | 4.4 |
| Cc1ccc(S(=O)(=O)N2CCN(C(=O)N[C@H](Cc3c[nH]c4ccccc34)C(=O)N[C@@H](CCCCN)C(=O)OC(C)(C)C)CC2)cc1 | 9.2 |
| CC(C)(C)OC(=O)[C@H](CCCCN)NC(=O)[C@@H](Cc1c[nH]c2ccccc12)NC(=O)N1CCC(n2c(=O)[nH]c3ccccc32)CC1 | 0.26 |

Prompt: Supply measured IC50 of `CC(C)(C)OC(=O)[C@H](CCCCN)NC(=O)[C@H](Cc1c[nH]c2ccccc12)NC(=O)c1ccc(-c2ccccc2)cc1` in your reply.
Completion: 85

Prompt: Note IC50 for the compound shown: `CC(C)(C)OC(=O)[C@H](CCCCN)NC(=O)[C@@H](Cc1c[nH]c2ccccc12)NC(=O)C1CCN(S(=O)(=O)c2ccccc2)CC1`
Completion: 3.2

Prompt: Item `CC(C)(C)OC(=O)[C@H](CCCCN)NC(=O)[C@@H](Cc1c[nH]c2ccccc12)NC(=O)N1CCN(S(=O)(=O)c2ccccc2)CC1` : provide IC50
Completion: 2.9

Prompt: Find the measured IC50 of `CC(C)(C)OC(=O)[C@H](CCCCN)NC(=O)[C@@H](Cc1c[nH]c2ccccc12)NC(=O)N1CCN(C(=O)c2ccccc2)CC1` and report it.
Completion: 6.9

====

Listed here are compounds together with their documented IC50.
# tested on: Somatostatin receptor type 2 (Homo sapiens, UniProt P30874)
# Sequence (P30874 whole entry): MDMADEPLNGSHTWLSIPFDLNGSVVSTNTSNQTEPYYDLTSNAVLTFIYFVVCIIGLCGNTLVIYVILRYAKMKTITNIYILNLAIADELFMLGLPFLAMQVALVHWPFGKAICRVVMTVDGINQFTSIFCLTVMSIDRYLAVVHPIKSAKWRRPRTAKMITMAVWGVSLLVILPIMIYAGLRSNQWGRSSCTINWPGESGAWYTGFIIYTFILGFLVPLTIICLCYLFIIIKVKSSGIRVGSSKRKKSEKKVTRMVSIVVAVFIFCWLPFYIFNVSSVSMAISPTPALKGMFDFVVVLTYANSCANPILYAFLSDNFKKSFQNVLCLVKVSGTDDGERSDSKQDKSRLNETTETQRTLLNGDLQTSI
# method description: Antagonistic activity towards sst2 receptor in GH4C1 cells a concentration of 1-2 x 10e6/mL incubated for 20 minutes
# Type: functional, cell-based, GH4-C1
Where a SMILES comes first, the peptide text is derived from it. [ ]: non-standard residue; d: D form. The star is where a group is joined. Phe(3-F) = N[C@@H](Cc1cccc(F)c1)C(=O)O; Tos = Cc1ccc(S(=O)(=O)*)cc1
Just the number please, in nM, no unit attached.

Completed entries (count: 7):
| compound | IC50 [nM] |
| --- | --- |
| Cc1ccc(S(=O)(=O)N2CCN(C(=O)N[C@H](Cc3c[nH]c4ccccc34)C(=O)N[C@@H](CCCCN)C(=O)OC(C)(C)C)CC2)cc1 | 7700 |
| CC(C)(C)OC(=O)[C@H](CCCCN)NC(=O)[C@@H](Cc1c[nH]c2ccccc12)NC(=O)N1CCC(n2c(=O)[nH]c3ccccc32)CC1 | 6.5 |
| COC(=O)[C@H](CCCN=C(N)N)NC(=O)[C@H](Cc1cccc(F)c1)NS(=O)(=O)c1ccc(C)cc1 (Tos-[Phe(3-F)]-Arg-OMe) | 6500 |
| CC(C)(C)OC(=O)[C@H](CCCCN)NC(=O)[C@H](Cc1c[nH]c2ccccc12)NC(=O)c1ccc(-c2ccccc2)cc1 | 1200 |
| Cc1ccc(C(=O)N2CCN(C(=O)N[C@H](Cc3c[nH]c4ccccc34)C(=O)N[C@@H](CCCCN)C(=O)OC(C)(C)C)CC2)cc1 | 67 |
| CC(C)(C)OC(=O)[C@H](CCCCN)NC(=O)[C@@H](Cc1c[nH]c2ccccc12)NC(=O)C1CCN(S(=O)(=O)c2ccccc2)CC1 | 120 |
| CC(C)(C)OC(=O)[C@H](CCCCN)NC(=O)[C@@H](Cc1c[nH]c2ccccc12)NC(=O)N1CCN(C(=O)c2ccccc2)CC1 | 1600 |

Prompt: Using the record for `CC(C)(C)OC(=O)[C@H](CCCCN)NC(=O)[C@@H](Cc1c[nH]c2ccccc12)NC(=O)N1CCN(S(=O)(=O)c2ccccc2)CC1` , state its measured IC50.
Completion: 29
